B1: PTPN9 (parent)
chain: IDFLRVVRNQQSLAVSNMGARSKG

- Variants of: B1
- MEASUREMENT_NOTES: protein stability index of a GFP-peptide fusion (GPS, HEK-293T) (PSI 1-6); higher = more stable;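 also: lentivirally expressed fusions sorted by FACS into six bins by GFP to DsRed ratio, PSI derived from sequencing read proportions per bin multiplied by bin number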
- CONDITION: c terminus: a fixed tail appended
Lab note: compare protein stability index against 2. Equal or greater, write Y. Smaller, write N.

>  <PRIMARY_SEQUENCE>
IDFLRVVRAQQSLAVSNMGARSKG [N9A]

>  <GROUP>
N

$$$$
>  <PRIMARY_SEQUENCE>
HDFLRVVRNQQSLAVSNMGARSKG [I1H]

>  <GROUP>
Y

$$$$
>  <PRIMARY_SEQUENCE>
IDFLRVVRNQQPLAVSNMGARSKG [S12P]

>  <GROUP>
Y

$$$$
>  <PRIMARY_SEQUENCE>
IDFDRVVRNQQSLAVSNMGARSKG [L4D]

>  <GROUP>
Y

$$$$
>  <PRIMARY_SEQUENCE>
IYFLRVVRNQQSLAVSNMGARSKG [D2Y]

>  <GROUP>
N

$$$$
>  <PRIMARY_SEQUENCE>
IDFLRVVRNQQSSAVSNMGARSKG [L13S]

>  <GROUP>
Y

$$$$
>  <PRIMARY_SEQUENCE>
IDFHRVVRNQQSLAVSNMGARSKG [L4H]

>  <GROUP>
Y

$$$$
>  <PRIMARY_SEQUENCE>
IDRLRVVRNQQSLAVSNMGARSKG [F3R]

>  <GROUP>
Y

$$$$
>  <PRIMARY_SEQUENCE>
IDFLRVVRNQQSLAVMNMGARSKG [S16M]

>  <GROUP>
N

$$$$
>  <PRIMARY_SEQUENCE>
IDFLRVVRNQKSLAVSNMGARSKG [Q11K]

>  <GROUP>
Y

$$$$
>  <PRIMARY_SEQUENCE>
IDFSRVVRNQQSLAVSNMGARSKG [L4S]

>  <GROUP>
Y

$$$$
>  <PRIMARY_SEQUENCE>
IDFLTVVRNQQSLAVSNMGARSKG [R5T]

>  <GROUP>
Y

$$$$
>  <PRIMARY_SEQUENCE>
IDFLRVVRNQQSLAVSNMGARSWG [K23W]

>  <GROUP>
N

$$$$
>  <PRIMARY_SEQUENCE>
IDFLRVVRNQQSLAKSNMGARSKG [V15K]

>  <GROUP>
Y

$$$$
>  <PRIMARY_SEQUENCE>
IAFLRVVRNQQSLAVSNMGARSKG [D2A]

>  <GROUP>
N

$$$$
>  <PRIMARY_SEQUENCE>
IDFLRVVRNQQSLAVSNMGARSPG [K23P]

>  <GROUP>
Y

$$$$
>  <PRIMARY_SEQUENCE>
IDFLRVVRYQQSLAVSNMGARSKG [N9Y]

>  <GROUP>
N

$$$$
>  <PRIMARY_SEQUENCE>
IDFLRVVRNQQSLAVSNMGARWKG [S22W]

>  <GROUP>
Y

$$$$
>  <PRIMARY_SEQUENCE>
IDFLRVVRNQQSLAVSNMGKRSKG [A20K]

>  <GROUP>
Y

$$$$
>  <PRIMARY_SEQUENCE>
IDFLRVVRNQQSLAVSNMGAKSKG [R21K]

>  <GROUP>
Y

$$$$
>  <PRIMARY_SEQUENCE>
IDFLRVVRNQQSLMVSNMGARSKG [A14M]

>  <GROUP>
Y

$$$$
>  <PRIMARY_SEQUENCE>
IDFLRVVRNQQSLAVSNMGYRSKG [A20Y]

>  <GROUP>
Y

$$$$
>  <PRIMARY_SEQUENCE>
IDFLRVVRNQQSLAVSNMGARSKI [G24I]

>  <GROUP>
Y

$$$$
>  <PRIMARY_SEQUENCE>
IIFLRVVRNQQSLAVSNMGARSKG [D2I]

>  <GROUP>
Y

$$$$
>  <PRIMARY_SEQUENCE>
IDFLRVVRNQQSLAVQNMGARSKG [S16Q]

>  <GROUP>
Y

$$$$
>  <PRIMARY_SEQUENCE>
IDSLRVVRNQQSLAVSNMGARSKG [F3S]

>  <GROUP>
Y

$$$$
>  <PRIMARY_SEQUENCE>
IDFLRVVRNQQSLAVSNMGAYSKG [R21Y]

>  <GROUP>
Y

$$$$
>  <PRIMARY_SEQUENCE>
IDFLRVVRNAQSLAVSNMGARSKG [Q10A]

>  <GROUP>
Y

$$$$
>  <PRIMARY_SEQUENCE>
IDFLRVVRNQQSLALSNMGARSKG [V15L]

>  <GROUP>
Y

$$$$
>  <PRIMARY_SEQUENCE>
IDGLRVVRNQQSLAVSNMGARSKG [F3G]

>  <GROUP>
Y

$$$$
>  <PRIMARY_SEQUENCE>
IDILRVVRNQQSLAVSNMGARSKG [F3I]

>  <GROUP>
Y

$$$$
>  <PRIMARY_SEQUENCE>
IDFLRVVRNQQSLAVSNMGASSKG [R21S]

>  <GROUP>
Y

$$$$
>  <PRIMARY_SEQUENCE>
IDFLRVVRNQQSLAVSNMGWRSKG [A20W]

>  <GROUP>
Y

$$$$

Origin of measurements: the supplement of paper PMC10567573
